Ref: patent US9745282B2

- system: human CYP11B1 (Homo sapiens (Human), UniProt P15538)
- Sequence (P15538 25-503): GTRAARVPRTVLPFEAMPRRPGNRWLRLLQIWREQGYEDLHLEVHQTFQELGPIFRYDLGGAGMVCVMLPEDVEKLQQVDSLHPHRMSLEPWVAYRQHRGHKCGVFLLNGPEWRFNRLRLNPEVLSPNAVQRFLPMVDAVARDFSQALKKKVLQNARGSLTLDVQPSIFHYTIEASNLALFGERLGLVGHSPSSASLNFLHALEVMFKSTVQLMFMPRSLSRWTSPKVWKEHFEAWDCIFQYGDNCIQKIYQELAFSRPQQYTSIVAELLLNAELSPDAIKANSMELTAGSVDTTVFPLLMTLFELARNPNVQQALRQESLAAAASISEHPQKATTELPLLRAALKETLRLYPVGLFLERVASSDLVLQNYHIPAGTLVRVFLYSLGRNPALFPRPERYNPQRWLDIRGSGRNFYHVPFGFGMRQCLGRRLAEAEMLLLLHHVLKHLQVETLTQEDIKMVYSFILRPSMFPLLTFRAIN
- procedureSummary: V79-Human-CYP11B1 cell assay
- Assay type: cell-based
- testContext: V79 cells expressing human CYP11B1; 250 nM 11-deoxycortisol; cortisol by HTRF
outcomeMeasure: IC50 (nM)

CCc1c(F)cncc1-c1cc(Cl)c2c(c1)CCN2C(C)=O [Example 9] = 400
CCc1c(F)cncc1-c1cc(F)c2c(c1)CCN2C(C)=O [Example 20] = 500
CC(=O)N1CCc2cc(-c3cncc(C(F)(F)F)c3)cc(Cl)c21 [Example 6] = 400
CC(=O)N1CCc2cc(-c3cccnc3)cc(Cl)c21 [Example 43] = 570

###

- system: human CYP11B2 (Homo sapiens (Human), UniProt P19099)
- Sequence (P19099 25-503): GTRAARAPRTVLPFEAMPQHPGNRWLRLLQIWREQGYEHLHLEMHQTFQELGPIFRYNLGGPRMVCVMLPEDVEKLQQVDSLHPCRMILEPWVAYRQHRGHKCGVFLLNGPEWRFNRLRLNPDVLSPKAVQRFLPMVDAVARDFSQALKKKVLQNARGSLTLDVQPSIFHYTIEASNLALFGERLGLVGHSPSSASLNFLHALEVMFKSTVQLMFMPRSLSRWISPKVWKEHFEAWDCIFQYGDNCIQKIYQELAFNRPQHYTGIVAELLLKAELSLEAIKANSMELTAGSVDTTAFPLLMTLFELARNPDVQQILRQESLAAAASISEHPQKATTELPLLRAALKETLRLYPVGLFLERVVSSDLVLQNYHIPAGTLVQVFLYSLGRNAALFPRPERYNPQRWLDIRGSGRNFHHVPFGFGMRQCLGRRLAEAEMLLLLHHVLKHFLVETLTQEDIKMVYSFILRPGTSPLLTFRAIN
- procedureSummary: V79-Human-CYP11B2 cell assay
- Type: cell-based
- testContext: V79 cells expressing human CYP11B2; 125 nM 11-deoxycorticosterone; aldosterone by HTRF
- Procedure: V79 cell lines stably expressing the either the human CYP11B2 or the human CYP11B1 enzyme were generated using a standard transfection protocol. V79 cells were transfected with plasmids pTriEx3-Hygro-hCyp11B2 or pTriEx3-Hygro-hCyp11B1 using Lipofectamine2000 reagent. […] The amount of product in the supernatant (aldosterone for CYP11B2 assay and cortisol for the CYP11B1 assay) was measured using HTRF-based assay kit (Aldosterone HTRF-CisBio#64ALDPEB, Cortisol HTRF-CisBio #63IDC002-CORT). […]
pIC50: −log10 of the molar value.
outcomeMeasure: pIC50

Recorded pIC50, per entry:
CC(=O)N1CCc2cc(-c3cncc(C#N)c3)cc(F)c21 = 7.01
CC(=O)N1CCc2cc(-c3cncc(C(F)(F)F)c3)cc(Cl)c21 = 8.12
CC(=O)N1CCc2cc(-c3cncc(C#N)c3C)cc(Cl)c21 = 7.46
CCc1c(F)cncc1-c1cc(F)c2c(c1)CCN2C(C)=O = 8.80
CC(=O)N1CCc2cc(-c3cncc(F)c3)ccc21 = 6.96
CC(=O)N1CCc2cc(-c3cncc(F)c3)c(Cl)cc21 = 6.09
COc1cncc(-c2cc(Cl)c3c(c2)CCN3C(C)=O)c1 = 8.39
CCc1c(F)cncc1-c1cc(Cl)c2c(c1)CCN2C(C)=O = 8.64

(P) CC(=O)N1CCc2cc(-c3cccnc3)cc(F)c21
(Q) CC(=O)N1CCc2cc(-c3cccnc3)c(Cl)cc21
Could you tell me which of these two has the smaller pIC50 figure? First: P Second: Q Reply with the label of the item you choose.
Q

###

- system: human CYP11B2 (Homo sapiens (Human))
- procedureSummary: V79-Human-CYP11B2 cell assay, modified protocol
- Format: cell-based
- testContext: V79 cells expressing human CYP11B2
pIC50: −log10 of the molar value.
outcomeMeasure: pIC50

Recorded pIC50, per entry:
COc1cncc(-c2ccc3c(c2)CCN3C(C)=O)c1 [Example 54] = 7.80
CC(=O)N1CCc2cc(-c3cnccc3C)ccc21 [Example 58] = 8.66

(a) O=C(C1CC1)N1CCc2cc(-c3cncc4ccccc34)ccc21 [Example 31]
(b) CCC(=O)N1CCc2cc(-c3cncc4ccccc34)ccc21 [Example 29]
(c) COc1ccc(C(=O)N2CCc3cc(-c4cccnc4)ccc32)cc1 [Example 25]
(d) CC(=S)N1CCc2cc(-c3cccnc3)ccc21 [Example 34]
With regard to pIC50, arrange the entries in ascending order, please. Respond with an ordered listing of the labels, as requested.
c, a, d, b
(c: 5.84, a: 6.82, d: 8.22, b: 8.55)

###

Measured pIC50 accompanies every entry in the list below.
- system: human CYP11B1 (Homo sapiens (Human), UniProt P15538)
- procedureSummary: V79-Human-CYP11B1 cell assay
- Format: cell-based
- testContext: V79 cells expressing human CYP11B1; 250 nM 11-deoxycortisol; cortisol by HTRF
pIC50: −log10 of the molar value.

Recorded pIC50, per entry:
CC(=O)N1CCc2cc(-c3cncc(C#N)c3)cc(F)c21 = < 5.00
CC(=O)N1CCc2cc(-c3cncc(F)c3)ccc21 = < 5.00

Next compound, please.
Record `CC(=O)N1CCc2cc(-c3cncc(F)c3)c(F)cc21` , field pIC50: < 5.00
